Target: UniProtKB P00797
Sequence (P00797 67-406): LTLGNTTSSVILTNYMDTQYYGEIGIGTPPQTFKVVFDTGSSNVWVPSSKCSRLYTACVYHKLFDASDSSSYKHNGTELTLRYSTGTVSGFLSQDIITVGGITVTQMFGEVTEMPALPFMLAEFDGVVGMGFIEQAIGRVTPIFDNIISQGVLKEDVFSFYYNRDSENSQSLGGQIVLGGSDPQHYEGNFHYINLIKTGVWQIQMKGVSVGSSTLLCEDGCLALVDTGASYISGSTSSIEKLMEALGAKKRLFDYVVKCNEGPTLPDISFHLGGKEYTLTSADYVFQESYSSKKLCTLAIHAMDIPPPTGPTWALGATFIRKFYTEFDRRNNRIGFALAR
Assay: Human renin-sheep renin substrate reaction system in vitro
Assay type: biochemical
Conditions: IC50 (molar concentration), purified human renin, semipurified sheep renin substrate, pH 7.4, 37° C., 15 minutes; angiotensin I by radioimmunoassay
EXPERIMENTAL READOUT: IC50 (µM)

CC(C)C[C@@H](CO)NC(=O)[C@H](Cc1c[nH]cn1)NC(=O)C(CCOCCc1ccccc1)Cc1cccc2ccccc12 (mixture of isomers) : 15

A: CC(C)C[C@@H](CO)NC(=O)[C@H](Cc1c[nH]cn1)NC(=O)C(CCCCc1ccccc1)Cc1cccc2ccccc12 (mixture of isomers)
B: CC(C)C[C@@H](CO)NC(=O)[C@H](Cc1c[nH]cn1)NC(=O)C(CCCC(=O)c1ccccc1)Cc1cccc2ccccc12 (mixture of isomers)
Q: Hi! Which is lower in terms of IC50, the first one A or the second one B ? Kindly give the label for the entry you pick.
Ans: A
(A: 5.4 µM, B: 13 µM)

###

Molecular target: human renin (Homo sapiens)
Assay: Human renin-sheep renin substrate reaction system in vitro
Assay type: biochemical
Conditions: purified human renin, semipurified sheep renin substrate, pH 7.4, 37° C., 15 minutes; angiotensin I by radioimmunoassay; read-out: IC50 (molar concentration)
EXPERIMENTAL READOUT: IC50 (µM)

These recorded examples may help you get a feel for the data.
CC(C)C[C@@H](C=O)NC(=O)[C@H](Cc1c[nH]cn1)NC(=O)C(CCCCc1ccc2ccccc2c1)Cc1ccccc1 (stereo partly drawn) : 3.4
CC(C)C[C@@H](C=O)NC(=O)[C@H](Cc1c[nH]cn1)NC(=O)C(CC=Cc1ccccc1)Cc1cccc2ccccc12 (mixture of isomers) : 0.22
CC(C)C[C@@H](C=O)NC(=O)[C@H](Cc1c[nH]cn1)NC(=O)C(CC=CC=Cc1ccccc1)Cc1cccc2ccccc12 (mixture of isomers) : 0.44
CC(C)C[C@@H](CO)NC(=O)[C@H](Cc1c[nH]cn1)NC(=O)C(CC(=O)Nc1ccccc1)Cc1cccc2ccccc12 (single isomer, unassigned) : 18
CC(C)C[C@@H](C=O)NC(=O)[C@H](Cc1c[nH]cn1)NC(=O)C(CCCC(=O)c1ccccc1)Cc1cccc2ccccc12 (mixture of isomers) : 0.19
CC(C)C[C@@H](CO)NC(=O)[C@H](Cc1c[nH]cn1)NC(=O)C(CC=Cc1ccccc1)Cc1cccc2ccccc12 (mixture of isomers) : 2.7

I: CC(C)C[C@@H](CO)NC(=O)[C@H](Cc1c[nH]cn1)NC(=O)C(=Cc1cccc2ccccc12)CC(=O)NCCc1ccccc1
II: CC(C)C[C@@H](C=O)NC(=O)[C@H](Cc1c[nH]cn1)NC(=O)C(CC(=O)NCc1ccccc1)Cc1cccc2ccccc12 (single isomer, unassigned)
Q: Hi! Which is lower in terms of IC50, the first one I or the second one II ? Kindly give the label for the entry you pick.
Ans: II

I: CC(C)C[C@@H](CO)NC(=O)[C@H](Cc1c[nH]cn1)NC(=O)C(CC(=O)NCCc1c[nH]c2ccccc12)Cc1cccc2ccccc12 (single isomer, unassigned)
II: CC(C)C[C@@H](C=O)NC(=O)[C@H](Cc1c[nH]cn1)NC(=O)C(CCOCCc1ccccc1)Cc1cccc2ccccc12 (mixture of isomers)
Q: Parameter check: reported IC50 is higher for which label, I or II ? Kindly give the label for the entry you pick.
Ans: I

###

Molecular target: UniProtKB P00797
Test: Human renin-sheep renin substrate reaction system in vitro
Assay type: biochemical
Settings: purified human renin, semipurified sheep renin substrate, pH 7.4, 37° C., 15 minutes; angiotensin I by radioimmunoassay; read-out: IC50 (molar concentration)
EXPERIMENTAL READOUT: IC50 (µM)

These recorded examples may help you get a feel for the data.
CC(C)C[C@@H](C=O)NC(=O)[C@H](Cc1c[nH]cn1)NC(=O)C(=Cc1ccccc1)CC(=O)NCc1cccc2ccccc12 : 3.8
CC(C)C[C@@H](C=O)NC(=O)[C@H](Cc1c[nH]cn1)NC(=O)C(Cc1ccccc1)C(=O)NCc1cccc2ccccc12 (mixture of isomers) : 8.2
CC(C)C[C@@H](C=O)NC(=O)[C@H](Cc1c[nH]cn1)NC(=O)C(CNC(=O)Cc1cccc2ccccc12)Cc1ccccc1 (mixture of isomers) : 7.6
CC(C)C[C@@H](CO)NC(=O)[C@H](Cc1c[nH]cn1)NC(=O)C(CCCCc1ccccc1)Oc1cccc2ccccc12 (mixture of isomers) : 76

1: CC(C)C[C@@H](C=O)NC(=O)[C@H](Cc1c[nH]cn1)NC(=O)C(Cc1ccccc1)Cc1ccccc1
2: CC(C)C[C@@H](C=O)NC(=O)[C@H](Cc1c[nH]cn1)NC(=O)C(CCc1ccccc1)CCc1ccccc1
Q: Parameter check: reported IC50 is higher for which label, 1 or 2 ? Kindly give the label for the entry you pick.
Ans: 2
(2: 3.5 µM, 1: 1.1 µM)

1: CC(C)C[C@@H](CO)NC(=O)[C@H](Cc1c[nH]cn1)NC(=O)C(CCCc1ccccc1)Cc1cccc2ccccc12 (mixture of isomers)
2: CC(C)C[C@@H](CO)NC(=O)[C@H](Cc1c[nH]cn1)NC(=O)C(CNCCCc1ccccc1)Cc1cccc2ccccc12 (single isomer, unassigned)
Q: Hi! Which is lower in terms of IC50, the first one 1 or the second one 2 ? Kindly give the label for the entry you pick.
Ans: 1

I: CC(C)C[C@@H](C=O)NC(=O)[C@H](Cc1c[nH]cn1)NC(=O)C(CC(=O)NCCc1ccccc1)Cc1cccc2ccccc12 (single isomer, unassigned)
II: CC(C)C[C@@H](CO)NC(=O)[C@H](Cc1c[nH]cn1)NC(=O)C(CC(=O)NCCc1c[nH]c2ccccc12)Cc1cccc2ccccc12 (single isomer, unassigned)
Q: Parameter check: reported IC50 is higher for which label, I or II ? Kindly give the label for the entry you pick.
Ans: II

###

Molecular target: human renin (Homo sapiens, UniProt P00797)
Assay: Human renin-sheep renin substrate reaction system in vitro
Assay type: biochemical
Details: purified human renin, semipurified sheep renin substrate, pH 7.4, 37° C., 15 minutes; angiotensin I by radioimmunoassay; read-out: IC50 (molar concentration)
pIC50: −log10 of the molar value.
EXPERIMENTAL READOUT: pIC50

CC(C)C[C@@H](CO)NC(=O)[C@H](Cc1c[nH]cn1)NC(=O)C(CC(=O)Nc1ccccc1)Cc1cccc2ccccc12 (single isomer, unassigned) : 4.19

a: CC(C)C[C@@H](CO)NC(=O)[C@H](Cc1c[nH]cn1)NC(=O)C(CCCOc1ccccc1)Cc1cccc2ccccc12 (mixture of isomers)
b: CC(C)C[C@@H](CO)NC(=O)[C@H](Cc1c[nH]cn1)NC(=O)C(CC=CC=Cc1ccccc1)Cc1cccc2ccccc12 (mixture of isomers)
c: O=C(CC(Cc1cccc2ccccc12)C(=O)N[C@@H](Cc1c[nH]cn1)C(=O)N[C@H](CO)Cc1ccccc1)NCCc1ccccc1 (single isomer, unassigned)
d: CC(C)C[C@@H](C=O)NC(=O)[C@H](Cc1c[nH]cn1)NC(=O)C(CC(=O)NCc1ccccc1)Cc1cccc2ccccc12 (single isomer, unassigned)
e: CC(C)C[C@@H](C=O)NC(=O)[C@H](Cc1c[nH]cn1)NC(=O)C(CCCCCc1ccccc1)Cc1ccccc1 (stereo partly drawn)
Q: Please list these in order of increasing pIC50. Thank you! Give me the labels in the order the question wants.
Ans: c, a, b, d, e
(c: 4.04, a: 4.59, b: 4.92, d: 5.31, e: 5.70)

###

Biological target: human renin (Homo sapiens)
Test: Human renin-sheep renin substrate reaction system in vitro
Assay type: biochemical
Details: purified human renin, semipurified sheep renin substrate, pH 7.4, 37° C., 15 minutes; angiotensin I by radioimmunoassay; read-out: IC50 (molar concentration)
pIC50: −log10 of the molar value.
EXPERIMENTAL READOUT: pIC50

CC(C)C[C@@H](C=O)NC(=O)[C@H](Cc1c[nH]cn1)NC(=O)C(CC(=O)NCc1cccc2ccccc12)Cc1ccccc1 (mixture of isomers) : 5.14
